- procedureDetails: Activation of NQO1 in human A549 cells assessed as decrease in cell survival incubated for 2 hrs measured after 7 days in presence of NQO1 inhibitor dicoumarol by Hoechst 33258 staining based assay
The entries below are paired with their reported IC50.

Take a look at these entries with their results.
CC1(C)OC2=C(C(=O)C(=O)c3ccccc32)C1Nc1ccc(F)c([N+](=O)[O-])c1 (centres undefined) | > 3.2 µM
CC1(C)OC2=C(C(=O)C(=O)c3ccccc32)C1Nc1cccc(-c2cn(C[Se]c3ccccc3)nn2)c1 (centres undefined) | > 3.2 µM
CC1(C)OC2=C(C(=O)C(=O)c3ccccc32)C1Nc1cccc([N+](=O)[O-])c1 (centres undefined) | > 3.2 µM

For the next question, use this compound.
Ask: Identify measured IC50 associated with CC1(C)OC2=C(C(=O)C(=O)c3ccccc32)C1Nc1ccc([N+](=O)[O-])cc1 (centres undefined)
Reply: > 3.2 µM

Taken from BindingDB's records for doi:10.1016/j.ejmech.2016.06.019.
